Tested on: HepG2
Assay: GSK_TCMDC: Percent inhibition of human HepG2 cell line. Test compounds present at 10uM.
Type: functional

COMPOUND: NC(=S)Cc1ccc2c(c1)OCO2
ASSAY_SYSTEM: HepG2
Inhibition: 43%
//
COMPOUND: COc1ccc(Br)cc1/C=C/C(=O)Nc1cccc(C2CCN(C)CC2)c1.O=CO
ASSAY_SYSTEM: HepG2
Inhibition: 44%
//
COMPOUND: CCCCCCCCCCNCC(O)c1ccc(O)c(C(=O)OC)c1 (stereo not given)
ASSAY_SYSTEM: HepG2
Inhibition: 3%
//
COMPOUND: Cc1ccc(S(=O)(=O)N2CCN(C(=O)c3cc(-c4cccs4)n[nH]3)CC2)c(C)c1
ASSAY_SYSTEM: HepG2
Inhibition: 0%
//
COMPOUND: CN1CCC(C(=O)Nc2cccc(-c3ccc(-c4nc5ccccc5[nH]4)cc3)c2)CC1
ASSAY_SYSTEM: HepG2
Inhibition: 7%
//
COMPOUND: COc1ccc(-c2ccc(CNC(=O)c3ccc(Cl)cc3)c(F)c2)cc1CN1CCCN(C)CC1.O=C(O)C(F)(F)F
ASSAY_SYSTEM: HepG2
Inhibition: 25%
//
COMPOUND: O=C(CCN1C(=O)c2ccccc2C1=O)N1CCN(CC=Cc2ccccc2)CC1
ASSAY_SYSTEM: HepG2
Inhibition: 10%
//
COMPOUND: Oc1cc(Nc2ccnc3cc(-c4cccc(CN5CCCCC5)c4)ccc23)c(F)cc1Cl
ASSAY_SYSTEM: HepG2
Inhibition: 21%
//
COMPOUND: Cc1ccc(Oc2ncccc2C(=O)Nc2cccc3cccnc23)c(C)c1
ASSAY_SYSTEM: HepG2
Inhibition: 0%
//
COMPOUND: O=C(NC1CCCCC1)C(c1cccs1)N(CCc1ccccc1)C(=O)c1ccco1 (stereo not given)
ASSAY_SYSTEM: HepG2
Inhibition: 0%
